Entry source: ChEMBL document CHEMBL1201862

Readings of GI50 for the listed molecules
- Tested on: IGROV-1
- test.description: NCI tumour cell line growth inhibition, 48 h
The source made the active and inactive calls. No stated cut-off is given here; in the data, active = GI50 up to about 1.1 µM and inactive = higher.

Some molecules with recorded GI50:
COc1ccc(C2=NN(C(=O)c3cccnc3)C(O)(c3cc(F)c(Cl)cc3Cl)C2)cc1OC (stereo not given) : 8.11 µM (inactive)
COc1ccccc1/N=N/c1c(-c2ccccc2)nn(C(=O)CC(=O)Nc2ccccc2Cl)c1-c1ccccc1 : > 100 µM (inactive)
CC(=O)/C(=N\N=C(N)N)c1ccccc1 : > 100 µM (inactive)
COc1ccc(CC2Cc3ccccc3CCN2)cc1OC (stereo not given) : 23.9 µM (inactive)

Now for another entry.
Determine its reported GI50: C#CCN(N=O)C(=O)NC(CCCCNC(=O)OCc1ccccc1)C(=O)OCc1ccccc1 (stereo not given)
> 100 µM (inactive)
